assay: Pharmacokinetics following a single oral dose; set-up: species or system Male Long Evans Rats; conditions: male, Long Evans, rat, in vivo; single oral dose of 10 mg/kg
Counter-ions that a name gives are not always drawn.
MEASURED_METRIC: AUC(0-inf) (ng·h/mL)

{"columns": ["MOLECULE", "DATA_VALUE"],
 "data": [
  ["O=S(=O)(c1cccc2ccccc12)c1nn(Cc2ccccc2)c2ccc(N3CCNCC3)cc12 [Example 2, dihydrochloride]", 2100],
  ["O=S(=O)(c1cccc2ccccc12)c1n[nH]c2ccc(N3CCNCC3)cc12 [Compound C, dihydrochloride, reference compound]", 119],
  ["CC(C)Cn1nc(S(=O)(=O)c2cccc3ccccc23)c2cc(N3CCNCC3)ccc21 [Example 1, dihydrochloride]", 413]
]}
